Measured GI50 by item
System: M14
Test: NCI tumour cell line growth inhibition, 48 h
The source made the active and inactive calls. Cut-off read from the data, not from the text of the source: active = GI50 up to about 1.1 µM and inactive = higher.

Worked examples follow.
# COMPOUND, RESULT
measured = [
    ("CCOC(=O)/C=C(/C(=O)OCC)n1ccc(=O)[nH]c1=O", "3.83 µM (inactive)"),
    ("CN(C(=O)C1CC1)C1C2CN3CCC(O2)C13 (stereo not given)", "> 100 µM (inactive)"),
    ("CCc1nc2cc(F)ccc2[nH]c1=O", "> 100 µM (inactive)"),
    ("CCN(CC)c1ccc(C2Nc3ccc4ccccc4c3C3=C2C(=O)CCC3)cc1 (stereo not given)", "> 100 µM (inactive)"),
    ("COc1cccc(C2SC(=N)Nc3c2c(C)nn3C(=O)Cc2ccccc2)c1 (stereo not given)", "> 100 µM (inactive)"),
]

Pending compound:
stdin: Find the measured GI50 of O=C(CC(C(=O)c1cccs1)c1cccs1)c1ccsc1 (stereo not given) and report it.
stdout: 38.2 µM (inactive)
